Biological target: BuChE (Equus caballus, UniProt P81908)
Sequence (P81908 whole entry): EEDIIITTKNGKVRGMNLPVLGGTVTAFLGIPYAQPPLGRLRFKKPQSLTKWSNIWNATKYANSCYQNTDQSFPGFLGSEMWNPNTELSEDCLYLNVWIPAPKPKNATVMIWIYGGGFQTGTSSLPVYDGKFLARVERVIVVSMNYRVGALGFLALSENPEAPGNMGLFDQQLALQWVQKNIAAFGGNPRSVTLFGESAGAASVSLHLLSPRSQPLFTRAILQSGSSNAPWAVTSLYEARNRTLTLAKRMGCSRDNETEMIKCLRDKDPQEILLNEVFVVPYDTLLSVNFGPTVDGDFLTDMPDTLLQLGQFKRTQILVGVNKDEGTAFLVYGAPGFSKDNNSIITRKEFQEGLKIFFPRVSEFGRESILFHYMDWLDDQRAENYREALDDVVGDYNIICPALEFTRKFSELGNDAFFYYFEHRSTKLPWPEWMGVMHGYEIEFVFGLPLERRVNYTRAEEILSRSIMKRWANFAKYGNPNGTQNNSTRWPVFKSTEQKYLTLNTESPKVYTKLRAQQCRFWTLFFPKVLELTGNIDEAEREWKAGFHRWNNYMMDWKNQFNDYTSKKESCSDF
Experiment: time-dependent Ellman assay, kobs analysis
Parameters: gene BCHE
Settings: read-out: kc; equilibrium constant of reversible step before carbamylation; covalent
So I've got a bunch of compounds here, and I need their KI (inactivation) values.
Numbers only, in nM.

Consider the following illustrative entries.
{"Compound": "CCCCCNC(=O)Oc1ccc2[nH]cc(CCNCc3ccccc3)c2c1 [3c]", "KI (inactivation) (nM)": 73.7}
{"Compound": "CCCCCCCNC(=O)Oc1ccc2[nH]cc(CCN)c2c1 [4e]", "KI (inactivation) (nM)": 3.02}

Note: attention shifts to another entry.
Fill in: KI (inactivation) of O=C(NC1CC1)Oc1ccc2[nH]cc(CCNCc3ccccc3)c2c1 [3f] is ___ 5.76

* * *

Experiment: in vitro
Set-up: species or system SH-SY5Y, LO2; MTT cytotoxicity, absorbance at 570 nm
Details: human, hepg2; read-out: ^a IC50 ± SD (μM) / HepG2
Experimental Endpoint: CC50 at 24 h

Sample records with CC50 at 24 h:
{"Structure String": "CN(C)C(=O)Oc1ccc2[nH]cc(CCN(Cc3ccccc3)Cc3ccccc3)c2c1", "Val": "> 100 µM"}
{"Structure String": "O=C(Oc1ccc2[nH]cc(CCN(Cc3ccccc3)Cc3ccccc3)c2c1)N1CCOCC1", "Val": "> 100 µM"}
{"Structure String": "O=C(Oc1ccc2[nH]cc(CCN(Cc3ccccc3)Cc3ccccc3)c2c1)N1CCCC1", "Val": "> 100 µM"}
{"Structure String": "O=C(Oc1ccc2[nH]cc(CCN(Cc3ccccc3)Cc3ccccc3)c2c1)N1CCCCCC1", "Val": "> 100 µM"}
{"Structure String": "CCCCN(CCCC)C(=O)Oc1ccc2[nH]cc(CCN(Cc3ccccc3)Cc3ccccc3)c2c1", "Val": "> 100 µM"}

Look up CC50 at 24 h for this compound: `CCN(C)C(=O)Oc1cccc([C@H](C)N(C)C)c1` > 100 µM

* * *

Biological target: BuChE (Equus caballus, UniProt P81908)
Test: Ellman colorimetric assay
Type: biochemical
Parameters: gene BCHE; native enzyme from equine serum, purchased from Sigma-Aldrich
Conditions: read-out: IC50 ± SD ^a / BuChE ^a
Returns: string. Value is YES if measured IC50 is below 0.03 µM, and NO if it is greater than or equal to it.

{"Structure String": "O=C(Oc1ccc2[nH]cc(CCNCc3ccccc3)c2c1)N1CCCCCC1", "Label Class": "YES"}

Confirm or reject: IC50 of `CCCCCNC(=O)Oc1ccc2[nH]cc(CCNCc3ccccc3)c2c1` lies strictly below 0.03 µM YES

# TODO verify IC50 < 0.03 µM strictly for this molecule: `O=C(NC1CC1)Oc1ccc2[nH]cc(CCNCc3ccccc3)c2c1` YES

In the record for `CCCCCCCNC(=O)Oc1ccc2[nH]cc(CCNCc3ccccc3)c2c1` , is IC50 less than 0.03 µM? NO

* * *

Molecular target: AChE (Electrophorus electricus)
Construct: native enzyme, Type V-S lyophilized powder, Sigma-Aldrich
Sequence (O42275 24-633): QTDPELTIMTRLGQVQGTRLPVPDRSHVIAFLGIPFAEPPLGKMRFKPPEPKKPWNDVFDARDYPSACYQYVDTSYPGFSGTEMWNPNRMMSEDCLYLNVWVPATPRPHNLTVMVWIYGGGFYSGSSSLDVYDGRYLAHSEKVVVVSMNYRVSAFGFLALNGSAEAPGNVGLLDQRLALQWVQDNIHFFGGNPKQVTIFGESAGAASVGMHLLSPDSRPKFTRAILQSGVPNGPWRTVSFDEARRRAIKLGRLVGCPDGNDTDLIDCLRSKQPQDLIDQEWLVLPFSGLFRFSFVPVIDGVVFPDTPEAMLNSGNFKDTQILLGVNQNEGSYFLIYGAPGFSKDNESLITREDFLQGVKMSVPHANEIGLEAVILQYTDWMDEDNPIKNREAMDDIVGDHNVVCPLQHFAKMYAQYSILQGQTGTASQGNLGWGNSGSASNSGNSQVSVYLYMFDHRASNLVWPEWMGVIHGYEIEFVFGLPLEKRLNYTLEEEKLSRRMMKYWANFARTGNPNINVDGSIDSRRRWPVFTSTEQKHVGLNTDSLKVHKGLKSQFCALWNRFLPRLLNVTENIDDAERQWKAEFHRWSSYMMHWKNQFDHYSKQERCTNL
Test: Ellman colorimetric assay
Type: biochemical
Conditions: ATCI substrate, […] min preincubation […] °C, pH […]; read-out: IC50 ± SD ^a / AChE ^a
Experimental Endpoint: IC50

Query (compound): `CCCCCCCNC(=O)Oc1ccc2[nH]cc(CCN)c2c1` ; field requested: IC50 > 100 µM

* * *

Please provide measured CC50 at 24 h for the entries that follow.
Assay: in vitro
Parameters: MTT cytotoxicity, absorbance at 570 nm, HT-22 mouse hippocampal neuronal cells
Settings: mouse, ht-22 hippocampal neuronal cells; read-out: IC50 ± SD / HT-22 ^a
Numbers only, in µM.

// solved cases for CC50 at 24 h follow
{"Compound": "CCCCCCNC(=O)Oc1ccc2[nH]cc(CCN)c2c1 [4d]", "Measurement Unit": "µM", "Val": 25.2}
{"Compound": "O=C(Oc1ccc2[nH]cc(CCNCc3ccccc3)c2c1)N1CCCCC1 [3s]", "Measurement Unit": "µM", "Val": 13.8}
{"Compound": "CN(C(=O)Oc1ccc2[nH]cc(CCNCc3ccccc3)c2c1)c1ccccc1 [3p]", "Measurement Unit": "µM", "Val": 11}
{"Compound": "O=C(Oc1ccc2[nH]cc(CCNCc3ccccc3)c2c1)N1CCCCCC1 [3t]", "Measurement Unit": "µM", "Val": 11.9}
{"Compound": "CCCN(CCC)C(=O)Oc1ccc2[nH]cc(CCNCc3ccccc3)c2c1 [3l]", "Measurement Unit": "µM", "Val": 6.31}

Provide reported CC50 at 24 h for each item, in the same order as listed.
1. CCN(CC)C(=O)Oc1ccc2[nH]cc(CCNCc3ccccc3)c2c1 [3k]
2. CN(C)C(=O)Oc1ccc2[nH]cc(CCNCc3ccccc3)c2c1 [3j]
3. CCCCCCCNC(=O)Oc1ccc2[nH]cc(CCNCc3ccccc3)c2c1 [3e]
4. O=C(Nc1ccccc1)Oc1ccc2[nH]cc(CCNCc3ccccc3)c2c1 [3i]
5. CCCCCNC(=O)Oc1ccc2[nH]cc(CCNCc3ccccc3)c2c1 [3c]

16
21.7
6.49
18.4
10.6

* * *

Molecular target: BuChE (Equus caballus)
Experiment: Ellman colorimetric assay
Assay type: biochemical
Parameters: gene BCHE; native enzyme from equine serum, purchased from Sigma-Aldrich
Details: read-out: IC50 ± SD / BuChE ^a
Experimental Endpoint: pIC50
One number for each entry, as −log10 of the molar value.

{"Structure String": "O=C(Oc1ccc2[nH]cc(CCN(Cc3ccccc3)Cc3ccccc3)c2c1)N1CCCCCC1", "Subject Of Test": "BuChE (Equus caballus)", "pIC50": 7.17}
{"Structure String": "CN(C)C(=O)Oc1ccc2[nH]cc(CCN(Cc3ccccc3)Cc3ccccc3)c2c1", "Subject Of Test": "BuChE (Equus caballus)", "pIC50": 8.17}
{"Structure String": "O=C(Oc1ccc2[nH]cc(CCN(Cc3ccccc3)Cc3ccccc3)c2c1)N(c1ccccc1)c1ccccc1", "Subject Of Test": "BuChE (Equus caballus)", "pIC50": 6.58}
{"Structure String": "CCN(CC)C(=O)Oc1ccc2[nH]cc(CCN(Cc3ccccc3)Cc3ccccc3)c2c1", "Subject Of Test": "BuChE (Equus caballus)", "pIC50": 6.49}
{"Structure String": "O=C(Oc1ccc2[nH]cc(CCN(Cc3ccccc3)Cc3ccccc3)c2c1)N1CCCCC1", "Subject Of Test": "BuChE (Equus caballus)", "pIC50": 7.48}

Return reported pIC50 values for all items listed beneath this line.
1. O=C(Oc1ccc2[nH]cc(CCN(Cc3ccccc3)Cc3ccccc3)c2c1)N1CCCC1
2. O=C(NC1CCCCC1)Oc1ccc2[nH]cc(CCN(Cc3ccccc3)Cc3ccccc3)c2c1
3. O=C(Oc1ccc2[nH]cc(CCN(Cc3ccccc3)Cc3ccccc3)c2c1)N1CCOCC1

1: 7.69; 2: 7.80; 3: 6.94

# get_value(readout='pIC50', item= `O=C(NC1CCCC1)Oc1ccc2[nH]cc(CCN(Cc3ccccc3)Cc3ccccc3)c2c1` ) 7.47

* * *

Test: in vitro
Set-up: MTT cytotoxicity, absorbance at 570 nm, HT-22 mouse hippocampal neuronal cells
Conditions: mouse, ht-22; read-out: IC50 ± SD / HT-22 ^a
Experimental Endpoint: CC50 at 24 h (µM)
Answers are plain numbers, in µM.

Consider the worked cases shown below.
{"Compound": "O=C(Nc1ccccc1)Oc1ccc2[nH]cc(CCN(Cc3ccccc3)Cc3ccccc3)c2c1 [2i]", "Measurement Unit": "µM", "CC50 at 24 h": 41.8}
{"Compound": "O=C(NC1CCCCC1)Oc1ccc2[nH]cc(CCN(Cc3ccccc3)Cc3ccccc3)c2c1 [2h]", "Measurement Unit": "µM", "CC50 at 24 h": 74.2}
{"Compound": "O=C(NC1CC1)Oc1ccc2[nH]cc(CCN(Cc3ccccc3)Cc3ccccc3)c2c1 [2f]", "Measurement Unit": "µM", "CC50 at 24 h": 60.2}

Then this compound:
Dear colleague, I am looking for the recorded CC50 at 24 h of the following compound: CCCCN(CCCC)C(=O)Oc1ccc2[nH]cc(CCN(Cc3ccccc3)Cc3ccccc3)c2c1 [2m] 65.3

* * *

I'd be grateful if you could share measured CC50 at 24 h for these entries.
Assay: in vitro
Set-up: MTT cytotoxicity, absorbance at 570 nm, HT-22 mouse hippocampal neuronal cells
Settings: mouse, ht-22; read-out: IC50 ± SD / HT-22 ^a
Answers are plain numbers, in µM.

{"Structure String": "CCCN(CCC)C(=O)Oc1ccc2[nH]cc(CCN(Cc3ccccc3)Cc3ccccc3)c2c1", "Measurement Unit": "µM", "Val": 38.6}
{"Structure String": "O=C(Oc1ccc2[nH]cc(CCN(Cc3ccccc3)Cc3ccccc3)c2c1)N1CCCC1", "Measurement Unit": "µM", "Val": 79.8}
{"Structure String": "O=C(Oc1ccc2[nH]cc(CCN(Cc3ccccc3)Cc3ccccc3)c2c1)N1CCOCC1", "Measurement Unit": "µM", "Val": 78.7}
{"Structure String": "CCN(CC)C(=O)Oc1ccc2[nH]cc(CCN(Cc3ccccc3)Cc3ccccc3)c2c1", "Measurement Unit": "µM", "Val": 54.7}
{"Structure String": "O=C(Oc1ccc2[nH]cc(CCN(Cc3ccccc3)Cc3ccccc3)c2c1)N1CCC1", "Measurement Unit": "µM", "Val": 86.5}
{"Structure String": "O=C(Oc1ccc2[nH]cc(CCN(Cc3ccccc3)Cc3ccccc3)c2c1)N1CCCCC1", "Measurement Unit": "µM", "Val": 42.7}
{"Structure String": "CCCCCCCNC(=O)Oc1ccc2[nH]cc(CCN(Cc3ccccc3)Cc3ccccc3)c2c1", "Measurement Unit": "µM", "Val": 35.6}
{"Structure String": "CCCCNC(=O)Oc1ccc2[nH]cc(CCN(Cc3ccccc3)Cc3ccccc3)c2c1", "Measurement Unit": "µM", "Val": 40.6}

Could I get CC50 at 24 h for every one of these entries?
1. O=C(NC1CCCC1)Oc1ccc2[nH]cc(CCN(Cc3ccccc3)Cc3ccccc3)c2c1
2. CCCCCNC(=O)Oc1ccc2[nH]cc(CCN(Cc3ccccc3)Cc3ccccc3)c2c1
3. CCCCCCNC(=O)Oc1ccc2[nH]cc(CCN(Cc3ccccc3)Cc3ccccc3)c2c1

1. 57.3
2. 37.5
3. 37.6

For every record below, what is its CC50 at 24 h?
1. CON(C)C(=O)Oc1ccc2[nH]cc(CCN(Cc3ccccc3)Cc3ccccc3)c2c1
2. CCCNC(=O)Oc1ccc2[nH]cc(CCN(Cc3ccccc3)Cc3ccccc3)c2c1

1. 72.1
2. 51.6
